- assay.details: Safety and tolerability study, single-dose pharmacokinetics (Parts A, B, C)
- Type: in vivo, human
- study.conditions: both sexes, human, plasma, oral, 5 mg, Part C, elderly men and women, Fasting (N = 24)

- smiles.code: "Cc1ccc(C(=O)Nc2nc(-c3ccco3)c(C(=O)C3CCOCC3)s2)cn1"
  AUC(0-inf) / ng·h/mL: 6310

----------
- assay.details: PET study, pharmacokinetic assessments
- Format: in vivo
- study.conditions: human, plasma, single oral doses 0.5 to 5 mg
readout.name: Tmax

- smiles.code: "Cc1ccc(C(=O)Nc2nc(-c3ccco3)c(C(=O)C3CCOCC3)s2)cn1"
  readout.name: "Tmax"
  result: "1 to 2 h"
